Values from patent US8134015B2

system-tested: human NaPi-2a (Homo sapiens)
Sequence (Q06495 whole entry): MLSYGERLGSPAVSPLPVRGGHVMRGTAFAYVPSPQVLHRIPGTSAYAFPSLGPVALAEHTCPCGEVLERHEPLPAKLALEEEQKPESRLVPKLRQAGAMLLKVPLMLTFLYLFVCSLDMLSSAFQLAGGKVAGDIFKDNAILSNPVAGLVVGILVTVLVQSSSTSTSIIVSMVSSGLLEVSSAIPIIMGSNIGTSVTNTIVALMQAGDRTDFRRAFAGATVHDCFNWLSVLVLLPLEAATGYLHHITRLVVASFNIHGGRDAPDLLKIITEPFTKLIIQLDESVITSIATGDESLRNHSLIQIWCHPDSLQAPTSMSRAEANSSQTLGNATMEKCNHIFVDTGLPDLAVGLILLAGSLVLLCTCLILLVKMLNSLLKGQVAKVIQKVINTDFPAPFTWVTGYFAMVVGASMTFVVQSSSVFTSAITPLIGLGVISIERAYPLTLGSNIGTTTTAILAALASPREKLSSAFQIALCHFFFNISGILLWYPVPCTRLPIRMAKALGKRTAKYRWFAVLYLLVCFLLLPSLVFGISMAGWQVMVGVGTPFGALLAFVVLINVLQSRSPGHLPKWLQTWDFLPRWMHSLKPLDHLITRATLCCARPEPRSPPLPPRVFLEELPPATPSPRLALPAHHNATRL
method: Sodium-dependent phosphate uptake of Xenopus oocytes which expressed NaPi-2a (32P)
particulars: phosphate uptake, Xenopus oocytes expressing human NaPi-2a; five concentration levels
measurement-type: IC50 (µM)

Worked set:
O=C(Nc1ccc(N2CCCCC2)cc1C(=O)N/N=C/c1cccc(F)c1)c1cccc(CN2CCc3nc4ncccc4cc3C2)c1 [Compound 896]    7.4
Cc1ccc(/C=N/NC(=O)c2c(NC(=O)c3cccc(CN4CCC(O)CC4)c3)sc3c2CCCC3)cc1C [Compound 633]    13.5
CCN(CC)CCNCc1cccc(C(=O)Nc2sc3c(c2C(=O)N/N=C/c2ccc(F)cc2)CCC3)c1 [Compound 813]    35.6

(1) Cc1ccc(/C=N/NC(=O)c2c(NC(=O)c3cccc(CN(CC(C)O)CC(C)O)c3)sc3c2CCCC3)cc1C (centres unmarked) [Compound 627]
(2) O=C(Nc1sc2ccccc2c1C(=O)N/N=C/c1ccc(Cl)c(C(F)(F)F)c1)c1cccc(CN2CCC(CO)CC2)c1 [Compound 802]
Exam item: Of the two listed items, which has the higher IC50? First: 1 Second: 2 Give the label under which the chosen entry appears.
Marked response: 2
(2: 5.96 µM, 1: 3.53 µM)

(A) O=C(O)CSCc1cccc(C(=O)Nc2ccc(N3CCCCC3)cc2C(=O)N/N=C/c2ccc(Cl)c(C(F)(F)F)c2)c1 [Compound 891]
(B) COc1ccc(/C=N/NC(=O)c2cc(F)ccc2NC(=O)c2cccc(CN(CC(C)O)CC(C)O)c2)cc1 (centres unmarked) [Compound 990]
Exam item: Of the two listed items, which has the higher IC50? First: A Second: B Give the label under which the chosen entry appears.
Marked response: A
